molecular target: NAD-dependent protein deacetylase sirtuin-2 (Homo sapiens, UniProt Q8IXJ6); assay: Inhibition of recombinant SIRT2 (unknown origin) using FAM-labeled RHKK(Ac) LM peptide as substrate incubated for 60 mins by electrophoretic mobility shift assay
pIC50: −log10 of the molar value.
OUTCOME_MEASURE: pIC50

[1] CN(C)c1ccnc(CNCCSC(c2ccccc2)(c2ccccc2)c2ccccc2)c1
[2] c1ccc(C(SCCNCc2ccccn2)(c2ccccc2)c2ccccc2)cc1
Asked: For the pair 1 and 2 , which entry has the numerically smaller recorded pIC50? Your answer should be the label attached to the chosen record.
Given back: 2

###

# pIC50 listing for each entry below
test system: MT2; test: Cytotoxicity against human MT2 cells assessed as reduction in cell proliferation measured after 3 days by MTT assay; type: cell-based; settings: MT2, 72 h
Recall that pIC50 is obtained by taking minus log10 of the concentration measured in molar.

* c1ccc(C(SCCNCc2ccccn2)(c2ccccc2)c2ccccc2)cc1 | 5.45

Asked: Under MT2, report pIC50 for COC(=O)[C@@H](CSC(c1ccccc1)(c1ccccc1)c1ccccc1)NCc1cc(N(C)C)ccn1
Given back: 5.50

Asked: Under MT2, report pIC50 for CN(C)c1ccnc(CNCCSC(c2ccccc2)(c2ccccc2)c2ccccc2)c1
Given back: 5.50

Asked: Under MT2, report pIC50 for CCN(CC)c1ccnc(CNCCSC(c2ccccc2)(c2ccccc2)c2ccccc2)c1
Given back: 5.65

###

Molecular target: UniProtKB Q8IXJ6
Sequence (Q8IXJ6 whole entry): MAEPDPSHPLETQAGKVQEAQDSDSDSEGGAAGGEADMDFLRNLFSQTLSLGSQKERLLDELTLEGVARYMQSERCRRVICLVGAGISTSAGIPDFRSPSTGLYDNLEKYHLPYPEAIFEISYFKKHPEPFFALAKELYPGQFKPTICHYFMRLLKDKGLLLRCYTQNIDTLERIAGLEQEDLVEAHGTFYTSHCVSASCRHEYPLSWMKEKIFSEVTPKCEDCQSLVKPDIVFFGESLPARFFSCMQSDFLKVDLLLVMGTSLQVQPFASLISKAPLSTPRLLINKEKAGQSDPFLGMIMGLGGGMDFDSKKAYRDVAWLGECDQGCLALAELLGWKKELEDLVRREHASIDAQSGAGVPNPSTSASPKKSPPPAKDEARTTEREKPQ
Test: Inhibition of recombinant SIRT2 (unknown origin) using FAM-labeled RHKK(Ac) LM peptide as substrate incubated for 60 mins by electrophoretic mobility shift assay
pIC50: −log10 of the molar value.
OUTCOME_MEASURE: pIC50

The cases that follow already have their pIC50 on record.
- COC(=O)[C@@H](CSC(c1ccccc1)(c1ccccc1)c1ccccc1)NCc1cc(N(C)C)ccn1: 4.97
- NCCSC(c1ccccc1)(c1ccccc1)c1ccccc1: < 4.00

Query compound follows.
Asked: Hello, please tell me recorded pIC50 for this one: CN(C)c1ccnc(CNCCS)c1
Given back: < 4.00

###

# IC50 listing for each entry below
Target: NAD-dependent protein deacetylase sirtuin-2 (Homo sapiens, UniProt Q8IXJ6)
Sequence (Q8IXJ6 whole entry): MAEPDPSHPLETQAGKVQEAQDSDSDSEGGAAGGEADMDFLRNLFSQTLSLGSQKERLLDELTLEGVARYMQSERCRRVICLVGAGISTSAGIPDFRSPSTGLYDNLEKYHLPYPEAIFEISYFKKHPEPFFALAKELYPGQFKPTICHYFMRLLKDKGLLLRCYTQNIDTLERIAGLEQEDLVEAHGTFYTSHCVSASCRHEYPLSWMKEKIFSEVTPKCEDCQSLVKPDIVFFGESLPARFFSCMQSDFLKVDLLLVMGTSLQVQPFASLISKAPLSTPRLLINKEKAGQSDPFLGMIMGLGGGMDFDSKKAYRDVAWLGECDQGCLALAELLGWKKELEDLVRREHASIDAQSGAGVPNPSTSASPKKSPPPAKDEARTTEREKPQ
Assay: Inhibition of recombinant SIRT2 (unknown origin) using FAM-labeled RHKK(Ac) LM peptide as substrate incubated for 60 mins by electrophoretic mobility shift assay

- CN(C)c1ccnc(C(=O)NCCSC(c2ccccc2)(c2ccccc2)c2ccccc2)c1: > 100 µM
- CN(C)c1ccc(CNCCSC(c2ccccc2)(c2ccccc2)c2ccccc2)c(Cl)c1: > 100 µM

Query compound follows.
Asked: Under NAD-dependent protein deacetylase sirtuin-2 (Homo sapiens, UniProt Q8IXJ6), report IC50 for COc1cc(N(C)C)ccc1CNCCSC(c1ccccc1)(c1ccccc1)c1ccccc1
Given back: > 100 µM

Where these numbers come from: ChEMBL document CHEMBL4699459
